Data provenance: ChEMBL document CHEMBL4834405

molecular target: Peptidyl-prolyl cis-trans isomerase FKBP1A (Homo sapiens); test: Displacement of fluorescent tracer 5-(3-(4-((1S,5S,6S)-10-(3,5-dichlorophenylsulfonyl)-2-oxo-3-(pyridin-3-ylmethyl)-3,10-diazabicyclo[4.3.1]decan-5-yl)-1H-1,2,3-triazol-1-yl)propylcarbamoyl)-2-(6-(dimethylamino)-3-(dimethyliminio)-3H-xanthen-9-yl)benzoate from recombinant full length C-terminal FLAG-tagged FKBP12 (unknown origin) expressed in Escherichia coli BL21 ([…]) cells incubated for 30 mins by fluorescence polarisation competition binding assay
# Kd listing for each entry below

Here are 2 compounds together with their reported answers.
Prompt line: Using the record for COc1ccc(CC[C@H]2OC(=O)[C@@H]3CCCCN3C(=O)[C@@H](C3CCCCC3)c3cc(OC)c(OC)c(c3)OCC/C=C/COc3cccc2c3)cc1OC , report its Kd.
Response line: 0.588 µM

Prompt line: Using the record for COc1ccc(CC[C@H]2OC(=O)[C@@H]3CCCCN3C(=O)[C@@H](C3CCCCC3)c3cc(OC)c(OC)c(c3)OCCCCCOc3cccc2c3)cc1OC , report its Kd.
Response line: 0.126 µM

Consider now this further compound.
Prompt line: Using the record for COc1ccc(CC[C@H]2OC(=O)[C@@H]3CCCCN3C(=O)[C@@H](C3CCCCC3)c3cc(OC)c(c(OC)c3)OCC/C=C\COc3cccc2c3)cc1OC , report its Kd.
Response line: 0.526 µM

###

# pKd listing for each entry below
target: Peptidyl-prolyl cis-trans isomerase FKBP1B (Homo sapiens, UniProt P68106); experiment: Displacement of fluorescent tracer 5-(3-(4-((1S,5S,6S)-10-(3,5-dichlorophenylsulfonyl)-2-oxo-3-(pyridin-3-ylmethyl)-3,10-diazabicyclo[4.3.1]decan-5-yl)-1H-1,2,3-triazol-1-yl)propylcarbamoyl)-2-(6-(dimethylamino)-3-(dimethyliminio)-3H-xanthen-9-yl)benzoate from recombinant full length C-terminal FLAG-tagged FKBP12.6 (unknown origin) expressed in Escherichia coli BL21 (DE3) cells incubated for 30 mins by fluorescence polarisation competition assay
Sequence (P68106 whole entry): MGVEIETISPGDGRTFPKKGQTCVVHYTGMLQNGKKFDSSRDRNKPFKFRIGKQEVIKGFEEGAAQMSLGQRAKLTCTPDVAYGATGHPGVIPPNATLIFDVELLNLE
// scale note: pKd = -log10(conc_M); give the bare number

Prompt line: Using the record for COc1ccc(CC[C@H]2OC(=O)[C@@H]3CCCCN3C(=O)[C@@H](C3CCCCC3)c3cc(OC)c(c(OC)c3)OCCOCCCCOc3cccc2c3)cc1OC , report its pKd.
Response line: 6.37

Prompt line: Using the record for COc1ccc(CC[C@H]2OC(=O)[C@@H]3CCCCN3C(=O)[C@@H](C3CCCCC3)c3cc(OC)c(OC)c(c3)OCCCOCCCCOc3cccc2c3)cc1OC , report its pKd.
Response line: 6.64

Prompt line: Using the record for COc1ccc(CC[C@H]2OC(=O)[C@@H]3CCCCN3C(=O)[C@@H](C3CCCCC3)c3cc(OC)c(OC)c(c3)OCCCCOc3cccc2c3)cc1OC , report its pKd.
Response line: 7.21

Prompt line: Using the record for COc1ccc(CC[C@H]2OC(=O)[C@@H]3CCCCN3C(=O)[C@@H](C3CCCCC3)c3cc(OC)c(OC)c(c3)OCCCOc3cccc2c3)cc1OC , report its pKd.
Response line: 7.03

Prompt line: Using the record for COc1ccc(CC[C@H]2OC(=O)[C@@H]3CCCCN3C(=O)[C@@H](C3CCCCC3)c3cc(OC)c(OC)c(c3)OC/C=C/COc3cccc2c3)cc1OC , report its pKd.
Response line: 6.67

Prompt line: Using the record for COc1ccc(CC[C@H]2OC(=O)[C@@H]3CCCCN3C(=O)[C@@H](C3CCCCC3)c3cc(OC)c(c(OC)c3)OCCOC/C=C\COc3cccc2c3)cc1OC , report its pKd.
Response line: 6.46

Next:
Prompt line: Using the record for COc1ccc(CC[C@H]2OC(=O)[C@@H]3CCCCN3C(=O)[C@@H](C3CCCCC3)c3cc(OC)c(OC)c(c3)OCCOC/C=C\COc3cccc2c3)cc1OC , report its pKd.
Response line: 6.52
